molecular target: HLA-DR1 (DRB*0101), purified from B-lymphoblastic cell line LG2.1 (human); test: competition with fluorescent HA 308-319 on purified HLA-DR1
property: IC50 (µM)
Report the value in µM with no unit label.

q: Returns the measured IC50 for the input binder. Input: HYNIVTFCCKCDSTLRLCVQST (modifications not checked) [HPV16 E7 peptide 51-72, P03129 51-72]
a: 70

q: Which IC50 is reported for this binder? PAGQAEPDRAHYNIVTFCCKCD (modifications not checked) [HPV16 E7 peptide 41-62, P03129 41-62]
a: 7.4

q: Using the record for RTLEDLLMGTLGIVCPICSQKP (modifications not checked) [HPV16 E7 peptide 77-98, P03129 77-98] , report its IC50.
a: 46

q: Reported IC50, binder STHVDIRTLEDLLMGTLGIVCP (modifications not checked) [HPV16 E7 peptide 71-92, P03129 71-92] : ____
a: 12
